System: HL60 (Acute myeloid leukaemia)
Experiment: Antileukemic activity, cell viability (CCK-8 Cell Counting Kit)
Type: cell-based
Conditions: Homo sapiens, HL-60; 18 h incubation, compounds 0 - 100 µM; read-out: IC50 Cancer cells HL60 (Acute myeloid leukaemia)
reported.property: IC50 (µM)

1. CC(=O)OC[C@H]1O[C@H](Sc2ccccc2)[C@H](OC(C)=O)[C@@H](N=C=S)[C@@H]1OC(C)=O [Compound 15α]    4.2
2. CCS(=O)(=O)[C@@H]1O[C@H](COC(C)=O)[C@@H](OC(C)=O)[C@H](N=C=S)[C@H]1OC(C)=O [Compound 20β]    19.8
3. CC(=O)OCC1OC([S+](C)[O-])C(OC(C)=O)C(N=C=S)C1OC(C)=O (stereo not drawn) [(SS)-16β]    36.9
4. CC(=O)OC[C@H]1O[C@H]([S@+]([O-])c2ccccc2)[C@H](OC(C)=O)[C@@H](N=C=S)[C@@H]1OC(C)=O [(RS)-18α]    7.4
5. CS(=O)(=O)CCCN=C=S [Compound 6, reference compound]    7
6. CC(=O)OC[C@H]1O[C@@H](S(=O)(=O)c2ccccc2)[C@H](OC(C)=O)[C@@H](N=C=S)[C@@H]1OC(C)=O [Compound 21β]    13.1

* * *

Test system: T24 (human bladder cancer cells)
Experiment: Cell viability assay (resazurin), cytotoxic activity against solid tumours
Assay type: cell-based
Settings: Homo sapiens; 72 h treatment, resazurin assay, mean ± SEM; read-out: IC50 T24 (Bladder cancer)
pIC50: −log10 of the molar value.
The following compounds are shown together with reported pIC50 values.
reported.property: pIC50

1) CC(=O)OC[C@H]1O[C@H]([S@+]([O-])c2ccccc2)[C@H](OC(C)=O)[C@@H](N=C=S)[C@@H]1OC(C)=O [(RS)-18α]    4.31
2) CCS[C@H]1O[C@H](COC(C)=O)[C@@H](OC(C)=O)[C@H](N=C=S)[C@H]1OC(C)=O [Compound 14α]    4.39
3) CCS[C@@H]1O[C@H](COC(C)=O)[C@@H](OC(C)=O)[C@H](N=C=S)[C@H]1OC(C)=O [Compound 14β]    4.38
4) C[S+]([O-])CCCCN=C=S (centres unmarked) [SFN, sulforaphane, reference compound]    5.20
5) CS[C@@H]1O[C@H](COC(C)=O)[C@@H](OC(C)=O)[C@H](N=C=S)[C@H]1OC(C)=O [Compound 13β]    4.38
6) CC(=O)OC[C@H]1O[C@@H](Sc2ccccc2)[C@H](OC(C)=O)[C@@H](N=C=S)[C@@H]1OC(C)=O [Compound 15β]    4.57
7) CC(=O)OC[C@H]1O[C@@H]([S@+]([O-])c2ccccc2)[C@H](OC(C)=O)[C@@H](N=C=S)[C@@H]1OC(C)=O [(RS)-18β]    4.76
8) CC[S@@+]([O-])[C@H]1O[C@H](COC(C)=O)[C@@H](OC(C)=O)[C@H](N=C=S)[C@H]1OC(C)=O [(RS)-17α]    4.18

* * *

Tested on: HaCaT cells
Assay: Cell viability assay (resazurin), cytotoxicity in non-malignant cells
Assay type: cell-based, human
Conditions: Homo sapiens, HaCaT, 72 h, read-out: IC50 HaCaT (Non-malignant keratinocyte)
Labelling: IC50 reported below 40 µM becomes yes; at or above becomes no.

1. CC(=O)OC[C@H]1O[C@@H](S(=O)(=O)c2ccccc2)[C@H](OC(C)=O)[C@@H](N=C=S)[C@@H]1OC(C)=O [Compound 21β]    no
2. CC(=O)OC[C@H]1O[C@@H](S(C)(=O)=O)[C@H](OC(C)=O)[C@@H](N=C=S)[C@@H]1OC(C)=O [Compound 19β]    no
3. CCS(=O)(=O)[C@@H]1O[C@H](COC(C)=O)[C@@H](OC(C)=O)[C@H](N=C=S)[C@H]1OC(C)=O [Compound 20β]    no
4. CCS(=O)(=O)[C@H]1O[C@H](COC(C)=O)[C@@H](OC(C)=O)[C@H](N=C=S)[C@H]1OC(C)=O [Compound 20α]    no
5. CC(=O)OC[C@H]1O[C@H](S(=O)(=O)c2ccccc2)[C@H](OC(C)=O)[C@@H](N=C=S)[C@@H]1OC(C)=O [Compound 21α]    no
6. CSCCCN=C=S [Compound 4, (3-isothiocyanatopropyl)(methyl)sulfane, reference compound]    no
7. C[S+]([O-])CCCN=C=S (racemic) [rac-5, reference compound]    yes
8. CS(=O)(=O)CCCN=C=S [Compound 6, reference compound]    yes

Taken from patent EP4534542A1.
